compounds and their reported growth inhibition
# method-notes: NCI Yeast Anticancer Drug Screen. Data for the mlh1 strain (AID 171);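 note: 0% = growth of vehicle-treated control cultures of the same strain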
# details: S. cerevisiae mlh1 strain growth inhibition; at 100.0 µM; stronger effect = higher value
This is part of a sample that, as a whole, favours compounds with a hit. Of some 79,000 tested, about 15% had one in any assay. Active and inactive are the calls of the source. Cut-off read from the data, not from the text of the source: active = growth inhibition above about 70%; inactive = the rest.

Example compounds with recorded growth inhibition:
compound	growth inhibition
O=C(/C=C(\c1ccccc1)N1CC1)c1ccccc1	98% (active)
O=C1c2ccccc2C(=O)C(Cl)C1Cl (stereo not drawn)	99% (active)

# input Using the record for [N-]=[N+]=C1C(Cl)=C(Cl)C(Cl)=C1Cl , report its growth inhibition.
# output 99% (active)

# input Need growth inhibition of Br[Se]c1ccccn1 , thanks.
# output 99% (active)

# input Which growth inhibition value is on record for CSC(=Nc1ccccc1)N(c1ccccc1)c1nc(=[N+](C)C)ss1 ?
# output 99% (active)

# input Give its growth inhibition value. Item: Nc1ccccc1C(=O)OCCc1ccccc1
# output 97% (active)

# input Suppose we examine the compound CCOC(=O)C1([Se]c2ccccc2)CCCC1=O (stereo not drawn) ; what growth inhibition value has been reported?
# output 83% (active)

# input # query: growth inhibition of entry OC(c1ccc(Br)cc1)C(Cl)(Cl)Cl (stereo not drawn)
# output 97% (active)

Cited source: PubChem BioAssay (NCI)
